# Experiment summary: self-splicing fitness, log relative to wild type (ln ratio); higher = more splicing; Tetrahymena group I intron in knt gene, E. coli kanamycin selection, DiMSum; sequences stand for … in CUCUCU…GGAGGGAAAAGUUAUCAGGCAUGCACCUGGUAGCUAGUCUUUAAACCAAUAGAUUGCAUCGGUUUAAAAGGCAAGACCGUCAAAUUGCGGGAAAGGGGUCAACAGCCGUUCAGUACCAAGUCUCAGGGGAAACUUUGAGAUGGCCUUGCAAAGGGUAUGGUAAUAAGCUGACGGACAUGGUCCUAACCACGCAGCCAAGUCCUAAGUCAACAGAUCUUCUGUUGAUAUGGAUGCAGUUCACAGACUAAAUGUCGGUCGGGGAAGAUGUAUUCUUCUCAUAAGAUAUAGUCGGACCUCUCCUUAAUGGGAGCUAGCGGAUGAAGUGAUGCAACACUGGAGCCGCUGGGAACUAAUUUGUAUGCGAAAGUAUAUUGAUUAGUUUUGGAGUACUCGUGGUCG;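 further: selection with 25 µg/mL kanamycin versus none on LB agar overnight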
# Measurement context: 37 °C
Given measured self-splicing fitness (ln), output 1 if it is greater than or equal to -1 and 0 if not.

>  <Seq>
UAGGAGCAAUAUUACGUAUA

>  <Discrete label>
1

$$$$
>  <Seq>
GGGGAGCAAUAUUACGCCGG

>  <Discrete label>
1

$$$$
>  <Seq>
AGUGAGCAAUAUUACGCACG

>  <Discrete label>
1

$$$$
>  <Seq>
GAAAAGCAAUAUUACGUCAU

>  <Discrete label>
1

$$$$
>  <Seq>
CACUAGCAAUAUUACGCCGG

>  <Discrete label>
1

$$$$
>  <Seq>
CAUCAGCAAUAUUACGGCGU

>  <Discrete label>
0

$$$$
>  <Seq>
GAAUAGCAAUAUUACGGAUA

>  <Discrete label>
0

$$$$
>  <Seq>
GCGCAGCAAUAUUACGACCG

>  <Discrete label>
1

$$$$
>  <Seq>
CAGCAGCAAUAUUACGUCAG

>  <Discrete label>
1

$$$$
>  <Seq>
GACUAGCAAUAUUACGACCA

>  <Discrete label>
1

$$$$
>  <Seq>
GGUCAGCAAUAUUACGGUGG

>  <Discrete label>
0

$$$$
>  <Seq>
GUAUAGCAAUAUUACGGUAG

>  <Discrete label>
0

$$$$
>  <Seq>
CAGUAGCAAUAUUACGCAGA

>  <Discrete label>
0

$$$$
>  <Seq>
UAGUAGCAAUAUUACGCAGG

>  <Discrete label>
0

$$$$
>  <Seq>
AUCCAGCAAUAUUACGUGCU

>  <Discrete label>
0

$$$$
>  <Seq>
GAACAGCAAUAUUACGAAAU

>  <Discrete label>
1

$$$$
>  <Seq>
GCAGAGCAAUAUUACGUUGC

>  <Discrete label>
0

$$$$
>  <Seq>
AACAAGCAAUAUUACGCUUU

>  <Discrete label>
0

$$$$
>  <Seq>
UUUCAGCAAUAUUACGCAAU

>  <Discrete label>
1

$$$$
>  <Seq>
GUGGAGCAAUAUUACGGCGG

>  <Discrete label>
0

$$$$
>  <Seq>
GGUCAGCAAUAUUACGCCGC

>  <Discrete label>
0

$$$$
>  <Seq>
GUUAAGCAAUAUUACGGGAC

>  <Discrete label>
1

$$$$
>  <Seq>
GCGGAGCAAUAUUACGACAG

>  <Discrete label>
0

$$$$
>  <Seq>
CGAUAGCAAUAUUACGUCAU

>  <Discrete label>
0

$$$$
